# Tested on: Oryza sativa, (L.) Tebonnet
# methodSummary: Rice tolerance to post-transplant applications under flooded paddy conditions (Example 187), ORYSAT (Rice, Tebonnet)
# runConditions: Rate 0.5000 kg/ha, rated three to four weeks after treatment
Field: ORYSAT herbicidal effect rating. Provide a value for each of the compounds that follow.
Please reply with the number alone, leaving off any unit.

INPUT: Need ORYSAT herbicidal effect rating, item Cn1c(C(F)(F)F)cc(=O)n(-c2ccc3snc(-c4ccc(OCC(=O)O)cc4)c3c2)c1=O
OUTPUT: 4.0

INPUT: Need ORYSAT herbicidal effect rating, item C#CCOC(=O)COc1c(-c2nsc3ccc(-n4c(=O)cc(C(F)(F)F)n(C)c4=O)cc23)ccc(C)c1C
OUTPUT: 9.0

INPUT: Need ORYSAT herbicidal effect rating, item COC(=O)C(C)Oc1c(-c2nsc3ccc(-n4c(=O)cc(C(F)(F)F)n(C)c4=O)cc23)ccc(C)c1C (stereo not shown)
OUTPUT: 5.0

INPUT: Need ORYSAT herbicidal effect rating, item CO/N=C/c1nsc2ccc(-n3c(=O)cc(C(F)(F)F)n(C)c3=O)cc12
OUTPUT: 9.0

INPUT: Need ORYSAT herbicidal effect rating, item Cn1c(C(F)(F)F)cc(=O)n(-c2ccc3snc(/C=N/O)c3c2)c1=O
OUTPUT: 8.0

INPUT: Need ORYSAT herbicidal effect rating, item Cc1ccc(OCC(=O)NS(=O)(=O)c2c(C)noc2C)c(-c2nsc3ccc(-n4c(=O)cc(C(F)(F)F)n(C)c4=O)cc23)c1
OUTPUT: 2.0

INPUT: Need ORYSAT herbicidal effect rating, item COC(=O)/C=C/c1nsc2ccc(-n3c(=O)cc(C(F)(F)F)n(C)c3=O)cc12
OUTPUT: 6.0

====

# Test system: Oryza sativa, (L.) Tebonnet
# methodSummary: Rice tolerance to post-transplant applications under flooded paddy conditions (Example 187), ORYSAT (Rice, Tebonnet)
# runConditions: 0.1250 kg/ha, herbicidal effect rating 0-9, three to four weeks after treatment
Field: ORYSAT. Provide a value for each of the compounds that follow.
Please reply with the number alone, leaving off any unit.

INPUT: Need ORYSAT, item COc1cc(C(Br)Br)ccc1-c1nsc2ccc(-n3c(=O)cc(C(F)(F)F)n(C)c3=O)cc12 [Example 447]
OUTPUT: 5.0

INPUT: Need ORYSAT, item COC(=O)COc1ccc(I)cc1-c1nsc2ccc(-n3c(=O)cc(C(F)(F)F)n(C)c3=O)cc12 [Example 459]
OUTPUT: 5.0

INPUT: Need ORYSAT, item CN(/N=C/c1nsc2ccc(-n3c(=O)cc(C(F)(F)F)n(C)c3=O)cc12)c1ccccc1 [Example 412]
OUTPUT: 2.0

INPUT: Need ORYSAT, item Cn1c(C(F)(F)F)cc(=O)n(-c2ccc3snc(C4(C#N)CC4)c3c2)c1=O [Example 446]
OUTPUT: 9.0

INPUT: Need ORYSAT, item CC(Cl)c1nsc2ccc(-n3c(=O)cc(C(F)(F)F)n(C)c3=O)cc12 (centres unmarked) [Example 416]
OUTPUT: 9.0

====

Field: MOOVA. Provide a value for each of the compounds that follow.
# Test system: Monochoria vaginalis, Presl.
# methodSummary: Preemergence weed control under flooded paddy conditions, MOOVA (Monochoria)
# Assay type: in vivo
# runConditions: 0.0320 kg/ha; preemergence weeds, flooded paddy; herbicidal effect rating 0-9, three to four weeks after treatment
Please reply with the number alone, leaving off any unit.

INPUT: Need MOOVA, item CCOCOCc1nsc2ccc(-n3c(=O)cc(C(F)(F)F)n(C)c3=O)cc12
OUTPUT: 6.0

INPUT: Need MOOVA, item COC(=O)COc1cc2c(cc1-c1nsc3ccc(-n4c(=O)cc(C(F)(F)F)n(C)c4=O)cc13)CCC2
OUTPUT: 9.0

INPUT: Need MOOVA, item CN(Cc1ccc(Cl)cc1)S(=O)(=O)NC(=O)c1nsc2ccc(-n3c(=O)cc(C(F)(F)F)n(C)c3=O)cc12
OUTPUT: 9.0

INPUT: Need MOOVA, item Cn1c(C(F)(F)F)cc(=O)n(-c2ccc3snc(COC4CCCCO4)c3c2)c1=O (stereo not shown)
OUTPUT: 7.0

INPUT: Need MOOVA, item Cn1c(C(F)(F)F)cc(=O)n(-c2ccc3snc(C(=O)NS(=O)(=O)Cc4ccc(OC(F)(F)F)cc4)c3c2)c1=O
OUTPUT: 4.0

INPUT: Need MOOVA, item Cn1c(C(F)(F)F)cc(=O)n(-c2ccc3snc(COC(=O)Cc4ccc(Cl)cc4)c3c2)c1=O
OUTPUT: 9.0

INPUT: Need MOOVA, item C#CCOC(=O)COc1cc2c(cc1-c1nsc3ccc(-n4c(=O)cc(C(F)(F)F)n(C)c4=O)cc13)CCC2
OUTPUT: 9.0

====

# System: Echinochloa oryzoides (Ard.) Fritsch.
# methodSummary: Preemergence weed control under flooded paddy conditions, ECHORC (Watergrass (Calif.)); also: meaning of each grade not given here
# Format: in vivo
# runConditions: Rate 0.1250 kg/ha; preemergence weeds, flooded paddy; rated three to four weeks after treatment
Field: herbicidal effect rating, ECHORC. Provide a value for each of the molecules that follow.

INPUT: Recorded herbicidal effect rating, ECHORC for Cn1c(C(F)(F)F)cc(=O)n(-c2ccc3snc(C(=O)NS(=O)(=O)CCl)c3c2)c1=O with Echinochloa oryzoides (Ard.) Fritsch., please?
OUTPUT: 0.0

INPUT: Recorded herbicidal effect rating, ECHORC for Cn1c(C(F)(F)F)cc(=O)n(-c2ccc3snc(CSCC(=O)NS(C)(=O)=O)c3c2)c1=O with Echinochloa oryzoides (Ard.) Fritsch., please?
OUTPUT: 3.0

INPUT: Recorded herbicidal effect rating, ECHORC for CCOc1cccc(-c2nsc3ccc(-n4c(=O)cc(C(F)(F)F)n(C)c4=O)cc23)c1 with Echinochloa oryzoides (Ard.) Fritsch., please?
OUTPUT: 9.0

INPUT: Recorded herbicidal effect rating, ECHORC for Cn1c(C(F)(F)F)cc(=O)n(-c2ccc3snc(CN(C(=O)OC(C)(C)C)S(C)(=O)=O)c3c2)c1=O with Echinochloa oryzoides (Ard.) Fritsch., please?
OUTPUT: 0.0

====

Field: herbicidal effect rating, CYPIR. Provide a value for each of the compounds that follow.
# Tested on: Cyperus iria
# methodSummary: Preemergence weed control under flooded paddy conditions, CYPIR (Rice Flatsedge); also: meaning of each grade not given here
# Format: in vivo
# runConditions: Rate 0.1250 kg/ha; preemergence weeds, flooded paddy; rated three to four weeks after treatment
Please reply with the number alone, leaving off any unit.

INPUT: Need herbicidal effect rating, CYPIR, item CNC.Cn1c(C(F)(F)F)cc(=O)n(-c2ccc3snc(CSCC(=O)O)c3c2)c1=O [Example 299]
OUTPUT: 9.0

INPUT: Need herbicidal effect rating, CYPIR, item Cn1c(C(F)(F)F)cc(=O)n(-c2ccc3snc(C(=O)CBr)c3c2)c1=O [Example 337]
OUTPUT: 6.0

INPUT: Need herbicidal effect rating, CYPIR, item Cn1c(C(F)(F)F)cc(=O)n(-c2ccc3snc(CN(C(=O)OC(C)(C)C)S(C)(=O)=O)c3c2)c1=O [Example 304]
OUTPUT: 9.0

INPUT: Need herbicidal effect rating, CYPIR, item Cn1c(C(F)(F)F)cc(=O)n(-c2ccc3snc(C(=O)CCl)c3c2)c1=O [Example 338]
OUTPUT: 3.0

INPUT: Need herbicidal effect rating, CYPIR, item Cn1c(C(F)(F)F)cc(=O)n(-c2ccc3snc(C(=O)Oc4ccc(F)cc4)c3c2)c1=O [Example 320]
OUTPUT: 5.5

INPUT: Need herbicidal effect rating, CYPIR, item Cn1c(C(F)(F)F)cc(=O)n(-c2ccc3snc(C(=O)Nc4cc(C(C)(C)C)on4)c3c2)c1=O [Example 331]
OUTPUT: 5.0

INPUT: Need herbicidal effect rating, CYPIR, item C[C@@H](Br)[C@H](Br)c1nsc2ccc(-n3c(=O)cc(C(F)(F)F)n(C)c3=O)cc12 [Example 303]
OUTPUT: 8.5

INPUT: Need herbicidal effect rating, CYPIR, item CC(Br)c1nsc2ccc(-n3c(=O)cc(C(F)(F)F)n(C)c3=O)cc12 (stereo not shown) [Example 339]
OUTPUT: 7.0

INPUT: Need herbicidal effect rating, CYPIR, item COc1ccc(OC)c(-c2nsc3ccc(-n4c(=O)cc(C(F)(F)F)n(C)c4=O)cc23)c1 [Example 333]
OUTPUT: 9.0

INPUT: Need herbicidal effect rating, CYPIR, item Cn1c(C(F)(F)F)cc(=O)n(-c2ccc3snc(C(=O)NS(C)(=O)=O)c3c2)c1=O [Example 323]
OUTPUT: 8.0

INPUT: Need herbicidal effect rating, CYPIR, item C[C@H](Br)[C@H](Br)c1nsc2ccc(-n3c(=O)cc(C(F)(F)F)n(C)c3=O)cc12 [Example 302]
OUTPUT: 8.5

INPUT: Need herbicidal effect rating, CYPIR, item CN(O)C(=O)COc1ccccc1-c1nsc2ccc(-n3c(=O)cc(C(F)(F)F)n(C)c3=O)cc12 [Example 336]
OUTPUT: 4.0

INPUT: Need herbicidal effect rating, CYPIR, item Cn1c(C(F)(F)F)cc(=O)n(-c2ccc3snc(-c4ccccc4OCC(=O)O)c3c2)c1=O [Example 312]
OUTPUT: 9.0

INPUT: Need herbicidal effect rating, CYPIR, item CCOc1cccc(-c2nsc3ccc(-n4c(=O)cc(C(F)(F)F)n(C)c4=O)cc23)c1 [Example 327]
OUTPUT: 9.0

INPUT: Need herbicidal effect rating, CYPIR, item C#CCOC(=O)COc1cccc(-c2nsc3ccc(-n4c(=O)cc(C(F)(F)F)n(C)c4=O)cc23)c1 [Example 326]
OUTPUT: 7.0

INPUT: Need herbicidal effect rating, CYPIR, item Cn1c(C(F)(F)F)cc(=O)n(-c2ccc3snc(C(C)(Br)Br)c3c2)c1=O [Example 340]
OUTPUT: 7.0
